The measurements presented in this section are drawn from patent US20090298167A1.

- system: rat IL-21R expressed on cells (rat)
- assay_explanation: cell-based or functional assay
The reader will find reported IC50 (nM) experiment 1, rat T cell proliferation values listed item by item below.
test_readout: IC50 (nM) experiment 1, rat T cell proliferation

binder="AbV (antibody, human IgG1, V domains shown) VH: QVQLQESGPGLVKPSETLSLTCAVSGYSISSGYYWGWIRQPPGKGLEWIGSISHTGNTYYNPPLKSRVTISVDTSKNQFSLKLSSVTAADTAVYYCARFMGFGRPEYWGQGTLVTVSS VL: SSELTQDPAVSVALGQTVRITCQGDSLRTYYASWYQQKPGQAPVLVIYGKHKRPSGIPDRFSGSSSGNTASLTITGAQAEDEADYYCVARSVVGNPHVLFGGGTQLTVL" recorded_number=70.5
binder="AbU (antibody, human IgG1, V domains shown, Human IgG1 triple-mutant (L234A, L235A, G237A); Framework limits derived; also called VHP/VL25; VHPTM/VL25) VH: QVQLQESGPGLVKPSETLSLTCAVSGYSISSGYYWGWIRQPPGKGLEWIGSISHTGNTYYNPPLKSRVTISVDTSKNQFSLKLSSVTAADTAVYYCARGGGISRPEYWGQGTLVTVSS VL: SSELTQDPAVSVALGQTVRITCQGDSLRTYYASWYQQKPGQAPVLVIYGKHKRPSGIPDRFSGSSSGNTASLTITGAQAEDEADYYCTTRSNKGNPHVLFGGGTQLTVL" recorded_number=173
binder="AbW (antibody, human IgG1, V domains shown) VH: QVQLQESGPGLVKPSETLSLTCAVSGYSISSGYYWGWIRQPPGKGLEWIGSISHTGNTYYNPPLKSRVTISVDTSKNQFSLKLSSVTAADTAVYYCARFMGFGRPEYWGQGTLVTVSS VL: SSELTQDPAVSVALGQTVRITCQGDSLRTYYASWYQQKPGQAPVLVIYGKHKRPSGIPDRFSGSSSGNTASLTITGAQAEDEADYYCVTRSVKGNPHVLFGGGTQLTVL" recorded_number=159
binder="AbS (antibody, human IgG1, V domains shown, Human IgG1 triple-mutant (L234A, L235A, G237A); Framework limits derived; also called VHP/VL6; VHPTM/VL6) VH: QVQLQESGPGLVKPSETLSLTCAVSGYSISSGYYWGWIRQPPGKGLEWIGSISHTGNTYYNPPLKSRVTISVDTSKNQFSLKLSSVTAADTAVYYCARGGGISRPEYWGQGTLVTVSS VL: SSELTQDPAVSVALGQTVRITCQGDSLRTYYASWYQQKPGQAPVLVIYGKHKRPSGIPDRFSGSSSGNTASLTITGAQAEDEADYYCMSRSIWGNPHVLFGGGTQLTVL" recorded_number=36
